tested on: MAP4K5; details: concentration: 1 μM, replicates: in singlicate; n = 1;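 note: KINOMEscan kinase panel screen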

compound | %Inh / %
COc1ccc(Nc2nccc(N3CCC(NC(=O)c4cc5ccccc5s4)C3)n2)cc1 (stereo not drawn) | 0
CNc1nc(-c2ccc3c(N)n[nH]c3c2)cc(N2C[C@@H](C(=O)Nc3ccccc3)CC[C@H]2C)n1 | 0
CC(=O)c1cccc(NC(=O)NC2CCN(c3ccnc(Nc4ccc(F)cc4)n3)C2)c1 (stereo not drawn) | 16
CCn1c(-c2ccccc2)nc2cnccc21 | 8
Cc1ccc(NC(=O)Nc2ccc(Cl)cc2)cc1-c1ccc(C(=O)Nc2ccncc2)cc1 | 6
CCn1c(-c2c(N)noc2C)nc2cnccc21 | 0
Cc1ccc(NC(=O)Nc2ccccc2)cc1-c1ccc(C(=O)Nc2ccncc2)cc1 | 0
COc1ccc(-c2coc3ccc(-c4nnc(C)o4)cc23)cc1 | 0
Cn1cncc1-c1cc2c(Nc3ccc(OCc4ccccc4)cc3)ncnc2cn1 | 0

====

system: PAK3; settings: concentration: 1 μM, replicates: in singlicate; n = 1
In this section, each of the molecules is paired with its reported %Inh.
quantity: %Inh

molecule | reported
Fc1ccc(-c2nc3n(c2-c2ccncc2)CCS3)cc1 [GI98581] | 42%
Nc1cccc(-c2ccc3c(N)n[nH]c3c2)n1 [GSK2192730] | 0%
Cc1c(Cn2c(C)c(C)n3c(=O)cc(N4CCOCC4)nc23)cccc1C(F)(F)F [GSK2328680] | 0%
CSc1ccc(-c2nc3n(c2-c2ccncc2)CCC3)cc1 [SKF-105561] | 0%
Cn1cncc1-c1cc2c(Nc3ccc(OCc4ccccc4)cc3)ncnc2cn1 [GW281179] | 0%
O=C(Nc1n[nH]c2nc(-c3cccs3)c(Br)cc12)C1CCCC1 [SB-743341] | 0%
COc1ccc(Nc2nccc(N3CCC(NC(=O)C(C)c4ccc(Cl)cc4)C3)n2)cc1 (stereo not shown) [GSK1379735] | 71%
CC(=O)c1c(C)c2cnc(Nc3ccn(C)n3)nc2n(C2CCCC2)c1=O | 0%
c1ccc(-c2ccnc3[nH]ccc23)cc1 [SB-693578] | 0%
COC(=O)C(Cc1ccccc1)NC(=O)NC1CCN(c2ccnc(Nc3ccc(F)cc3)n2)C1 (stereo not shown) [GSK1379714] | 16%
Cc1ccc(NC(=O)Nc2ccccc2)cc1-c1ccc(C(=O)Nc2ccncc2)cc1 [GSK1398471] | 11%
Cc1ccccc1Cn1ccn2c(=O)cc(N3CCOCC3)nc12 [GSK2269905] | 0%
Cc1cnc(N)c(/C=C/c2cncc(C(=O)NCCc3ccc(Cl)cc3Cl)c2)c1.Cl [GSK190937] | 0%
CC(C)c1ccc(O)cc1Nc1ccnc2ccc(C(F)(F)F)cc12 [GW482059] | 0%
CNCc1ccc2nc(NC(=O)c3ccc(C(C)(C)C)cc3)cn2c1 | 4%
COc1cccc(C2=C(Nc3cc(Cl)c(O)c(Cl)c3)C(=O)NC2=O)c1 [SB-390767] | 100%

====

In this section, each of the compounds is paired with its reported %Inh.
test system: CAMK1G; settings: concentration: 1 μM, replicates: in singlicate; n = 1
quantity: %Inh (%)

compound | measurement-target | result-units | reported
O=C1NC(=O)C(c2ccc(Cl)cc2)=C1Nc1ccc(O)cc1 [SB-340867] | CAMK1G | % | 0
COc1cccc(NC(=O)Nc2ccc(C)c(-c3ccc(C(=O)Nc4ccncc4)cc3)c2)c1 [GSK1398474] | CAMK1G | % | 0
Cc1c(Cn2c(C)c(C)n3c(=O)cc(N4CCOCC4)nc23)cccc1C(F)(F)F [GSK2328680] | CAMK1G | % | 2
NS(=O)(=O)c1cccc(N/C=C2\C(=O)Nc3ccc(S(=O)(=O)Cc4c(Cl)cccc4Cl)cc32)c1 [GSK398099] | CAMK1G | % | 26
Cn1cncc1-c1cc2c(Nc3ccc(OCc4ccccc4)cc3)ncnc2cn1 [GW281179] | CAMK1G | % | 0
Cc1cccc2c(-c3ccncn3)c(-c3ccc(F)cc3)nn12 [GW515532] | CAMK1G | % | 0
COc1cccc(CNC(=O)NC2CCN(c3ccnc(Nc4ccc(F)cc4)n3)C2)c1 (stereo not drawn) [GSK1379723] | CAMK1G | % | 0
COc1ccc(Nc2nccc(N3CCC(NC(=O)c4cc5ccccc5s4)C3)n2)cc1 (stereo not drawn) [GSK1379738] | CAMK1G | % | 67
COC(=O)C(Cc1ccccc1)NC(=O)NC1CCN(c2ccnc(Nc3ccc(F)cc3)n2)C1 (stereo not drawn) [GSK1379714] | CAMK1G | % | 9
COC(=O)C(NC(=O)NC1CCN(c2ccnc(Nc3ccc(F)cc3)n2)C1)c1ccccc1 (stereo not drawn) [GSK1379712] | CAMK1G | % | 0
COc1ccc(CSc2nnc(-c3ccc4ncsc4c3)o2)cc1C(F)(F)F | CAMK1G | % | 2
COC(=O)c1cccc(NC(=O)NC2CCN(c3ccnc(Nc4ccc(F)cc4)n3)C2)c1 (stereo not drawn) [GSK1379725] | CAMK1G | % | 0
Cc1ccc(-c2nc(Nc3ccncc3)c3ccccc3n2)s1 [GSK189015] | CAMK1G | % | 2
CC(C)c1cc(-c2ccc3c(N)n[nH]c3c2)nc(N)n1 [GSK2250882] | CAMK1G | % | 6
Cc1ccc(NC(=O)Nc2ccccc2)cc1-c1ccc(C(=O)Nc2ccncc2)cc1 [GSK1398471] | CAMK1G | % | 0
Cc1nccc(-c2c(-c3ccc(F)cc3)ncn2CCCN2CCOCC2)n1.Cl [SB-282975] | CAMK1G | % | 0
c1ccc(-c2ccnc3[nH]ccc23)cc1 [SB-693578] | CAMK1G | % | 15
Cn1cncc1C(=O)NC1CCN(c2ccnc(Nc3ccc(F)cc3)n2)C1 (stereo not drawn) [GSK1379717] | CAMK1G | % | 12

====

In this section, each of the molecules is paired with its reported %Inh.
system: PKMYT1; details: concentration: 1 μM, replicates: in singlicate; n = 1
quantity: %Inh (%)

molecule | reported
COc1ccc(CSc2nnc(-c3ccc4ncsc4c3)o2)cc1C(F)(F)F | 22
CCn1c(-c2c(N)noc2C)nc2cnccc21 [SB-737856] | 0
CN1c2ccc(-c3ccc(C(N)=O)cc3)cc2-c2[nH]ncc2S1(=O)=O | 0
CC(=O)c1cccc(NC(=O)NC2CCN(c3ccnc(Nc4ccc(F)cc4)n3)C2)c1 (stereo not drawn) [GSK1379710] | 3
Cc1ccc(NC(=O)Nc2ccccc2F)cc1-c1ccc(C(=O)Nc2ccncc2)cc1 [GSK1398477] | 18
O=C1NC(=O)C(c2ccc(Cl)cc2)=C1Nc1ccc(O)cc1 [SB-340867] | 0
Nc1ncnc2occ(-c3ccc4c(c3)CCN4C(=O)Cc3cc(F)ccc3F)c12 [GSK2645446] | 0
COc1ccc(Nc2nccc(N3CCC(NC(=O)C(C)c4ccc(Cl)cc4)CC3)n2)cc1 (stereo not drawn) [GSK1379812] | 9
Cn1cncc1C(=O)NC1CCN(c2ccnc(Nc3ccc(F)cc3)n2)C1 (stereo not drawn) [GSK1379717] | 0
COC(=O)C(NC(=O)NC1CCN(c2ccnc(Nc3ccc(F)cc3)n2)C1)c1ccccc1 (stereo not drawn) [GSK1379712] | 0
Nc1cccc(-c2ccc3c(N)n[nH]c3c2)n1 [GSK2192730] | 0
FC(F)(F)c1ccccc1-c1cc(-c2c[nH]nc2-c2ccccn2)ccn1 [GW679396] | 5
CC(=O)c1c(C)c2cnc(Nc3ccn(C)n3)nc2n(C2CCCC2)c1=O | 0
CCc1ccc(-c2ccc3c(c2)-c2n[nH]cc2S(=O)(=O)N3C)cc1 | 2
Cc1ccc(NC(=O)Nc2ccc(Cl)cc2)cc1-c1ccc(C(=O)Nc2ccncc2)cc1 [GSK1398472] | 5
O=C(Nc1n[nH]c2nc(-c3cccs3)c(Br)cc12)C1CC1 [SB-735297] | 0
Cc1ccc(NC(=O)c2ccc(Cl)cc2)cc1-c1ccc(C(=O)Nc2ccncc2)cc1 [GSK1398467] | 2
COC(=O)c1cccc(NC(=O)NC2CCN(c3ccnc(Nc4ccc(F)cc4)n3)C2)c1 (stereo not drawn) [GSK1379725] | 0

====

tested on: FLT1; details: concentration: 1 μM, replicates: in singlicate; n = 1
In this section, each of the compounds is paired with its reported %Inh.

compound | result-units | %Inh
CCn1c(-c2ccccc2)nc2cnccc21 | % | 53
Cn1cncc1C(=O)NC1CCN(c2ccnc(Nc3ccc(F)cc3)n2)C1 (stereo not drawn) | % | 12
Nc1nccc(-c2c(-c3ccc(F)cc3)ncn2C2CCN(Cc3ccccc3)CC2)n1 | % | 0
Cc1nccc(-c2c(-c3ccc(F)cc3)ncn2CCCN2CCOCC2)n1.Cl | % | 21
CC(=O)c1c(C)c2cnc(Nc3ccn(C)n3)nc2n(C2CCCC2)c1=O | % | 4
CC[C@@H]1CO[C@H](C(=O)Nc2ccccc2)CN1c1cc(-c2ccc3c(N)n[nH]c3c2)nc(NC)n1 | % | 28
COc1cc2ncnc(Nc3cccc(Br)c3)c2cc1OC.Cl | % | 21
COc1cccc(C2=C(Nc3cc(Cl)c(O)c(Cl)c3)C(=O)NC2=O)c1 | % | 20
O=C1NC(=O)C(c2ccc(Cl)cc2)=C1Nc1ccc(O)cc1 | % | 0
COc1cccc(CNC(=O)NC2CCN(c3ccnc(Nc4ccc(F)cc4)n3)C2)c1 (stereo not drawn) | % | 31
FC(F)(F)c1ccccc1-c1cc(-c2c[nH]nc2-c2ccccn2)ccn1 | % | 18
Cc1c(Cn2c3ccccc3n3c(=O)cc(N4CCOCC4)nc23)cccc1C(F)(F)F | % | 27
Cc1ccc(NC(=O)Nc2ccccc2F)cc1-c1ccc(C(=O)Nc2ccncc2)cc1 | % | 45
COC(=O)c1cccc(NC(=O)NC2CCN(c3ccnc(Nc4ccc(OC)cc4)n3)C2)c1 (stereo not drawn) | % | 26
Cc1cccc2c(-c3ccncn3)c(-c3ccc(F)cc3)nn12 | % | 32
Cc1ccccc1-c1cc(-c2c[nH]nc2-c2ccccn2)ccn1 | % | 6
Cl.Cl.Cl.N#Cc1ccc(CCNc2nccc(-c3cccc(CN4CCNCC4)c3)n2)cc1 | % | 17
COc1ccc(Nc2nccc(N3CCC(NC(=O)C(C)c4ccc(Cl)cc4)C3)n2)cc1 (stereo not drawn) | % | 21
